assayRemarks: Pharmacokinetic studies in male Sprague-Dawley rats
Format: in vivo
conditionInfo: male, Sprague-Dawley, plasma; rat, PO (3 mg/kg)
measuredEndpoint: Cmax (µM)
Reply numerically in µM, unit not repeated.

Examples from the recorded data:
CNC(=O)c1cc2c(Oc3ccc(NC(=O)C4(C(=O)Nc5ccc(F)cc5)CC4)cc3)ccnc2cc1OC [Compound 8]    11.4
COc1cc2nccc(Oc3ccc(NC(=O)C4(C(=O)Nc5ccc(F)cc5)CC4)cc3)c2cc1S(N)(=O)=O [Compound 206]    0.7

The reported value for COc1cc2nccc(Oc3ccc(NC(=O)C4(C(=O)Nc5ccc(F)cc5)CC4)cc3)c2cc1-c1ncco1 [Compound 45] in terms of Cmax is 15.3

// recorded Cmax for COc1cc2nccc(Oc3ccc(NC(=O)C4(C(=O)Nc5ccc(F)cc5)CC4)cc3)c2cc1C(N)=O [Compound 7] : 8.8

GET /value?item= CCNC(=O)c1cc2c(Oc3ccc(NC(=O)C4(C(=O)Nc5ccc(F)cc5)CC4)cc3)ccnc2cc1OC [Compound 9] &field=Cmax returns 3.9

* * *

// IC50 lookup, one value per entry
measuredOn: Mer (Homo sapiens (Human), UniProt Q12866)
Sequence (Q12866 21-999): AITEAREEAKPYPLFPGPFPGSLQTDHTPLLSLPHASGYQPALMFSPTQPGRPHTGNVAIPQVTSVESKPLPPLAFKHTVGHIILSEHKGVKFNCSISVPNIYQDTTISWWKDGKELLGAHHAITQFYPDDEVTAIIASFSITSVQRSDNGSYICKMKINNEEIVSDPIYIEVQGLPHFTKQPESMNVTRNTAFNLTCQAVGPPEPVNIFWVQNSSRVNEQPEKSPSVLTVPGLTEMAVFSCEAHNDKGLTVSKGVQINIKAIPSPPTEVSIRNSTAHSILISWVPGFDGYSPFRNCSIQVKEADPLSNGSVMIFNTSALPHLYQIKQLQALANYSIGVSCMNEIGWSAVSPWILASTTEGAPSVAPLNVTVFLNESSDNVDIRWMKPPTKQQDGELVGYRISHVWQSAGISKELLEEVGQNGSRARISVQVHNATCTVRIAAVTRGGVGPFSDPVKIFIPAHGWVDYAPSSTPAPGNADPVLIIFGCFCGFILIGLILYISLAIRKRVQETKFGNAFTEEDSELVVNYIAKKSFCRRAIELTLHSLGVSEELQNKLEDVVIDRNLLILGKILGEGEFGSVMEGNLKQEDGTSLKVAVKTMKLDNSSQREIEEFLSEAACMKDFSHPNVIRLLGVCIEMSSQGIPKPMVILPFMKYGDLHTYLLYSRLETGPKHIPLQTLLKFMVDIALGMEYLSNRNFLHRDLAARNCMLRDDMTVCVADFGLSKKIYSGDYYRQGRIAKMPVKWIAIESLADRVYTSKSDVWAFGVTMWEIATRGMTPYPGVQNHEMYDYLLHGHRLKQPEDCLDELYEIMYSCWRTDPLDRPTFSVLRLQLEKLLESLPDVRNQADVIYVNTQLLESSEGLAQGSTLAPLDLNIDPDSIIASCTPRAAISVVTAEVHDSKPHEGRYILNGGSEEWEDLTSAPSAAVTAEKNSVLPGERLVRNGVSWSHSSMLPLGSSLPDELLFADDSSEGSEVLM
assayRemarks: Mer autophosphorylation ELISA in transient transfected 293A cells
conditionInfo: cellular, MERTK transfected 293A cells

Example compounds with recorded IC50:
COc1cc2nccc(Oc3ccc(NC(=O)C4(C(=O)Nc5ccc(F)cc5)CC4)cc3)c2cc1C(C)=O [Compound 34]    ≤ 10 nM
NC(=O)c1cc2c(Oc3ccc(NC(=O)C4(C(=O)Nc5ccc(F)cc5)CC4)cc3)ccnc2cc1NCCCN1CCOCC1 [Compound 71]    10 to 100 nM
CNC(=O)c1cc2c(Oc3ccc(NC(=O)C4(C(=O)Nc5ccc(F)cc5C5CC5)CC4)cc3F)ccnc2cc1OC [Compound 270]    10 to 100 nM

Entry NC(=O)c1ccc2c(Oc3ccc(NC(=O)C4(C(=O)Nc5ccc(F)cc5)CC4)cc3)ccnc2c1 [Compound 164] , Mer (Homo sapiens (Human), UniProt Q12866) data, IC50 value: 10 to 100 nM

Bench note, Mer (Homo sapiens (Human), UniProt Q12866): entry COc1cc2nccc(Oc3ccc(NC(=O)C4(C(=O)Nc5ccc(F)cc5)CC4)cc3)c2cc1S(N)(=O)=O [Compound 206] , its IC50 = 10 to 100 nM

Assay Mer (Homo sapiens (Human), UniProt Q12866), sample CONC(=O)c1cc2c(Oc3ccc(NC(=O)C4(C(=O)Nc5ccc(F)cc5)CC4)cc3)ccnc2cc1OC [Compound 17] , IC50 read: 10 to 100 nM

Short answer on Mer (Homo sapiens (Human), UniProt Q12866) for CCNS(=O)(=O)c1cc2c(Oc3ccc(NC(=O)C4(C(=O)Nc5ccc(F)cc5)CC4)cc3)ccnc2cc1OC [Compound 208] , IC50: 10 to 100 nM

Value (IC50, Mer (Homo sapiens (Human), UniProt Q12866)) for record COc1cc2nccc(Oc3ccc(NC(=O)C4(C(=O)Nc5ccc(F)cc5)CC4)cc3)c2cc1C(=O)NOCC(O)CO (single isomer, unassigned) [Compound 31] = > 300 nM

For CNC(=O)c1cc2c(Oc3ccc(NC(=O)C4(C(=O)Nc5ccc(F)cc5)CC4)cc3Cl)ccnc2cc1OC [Compound 134] on Mer (Homo sapiens (Human), UniProt Q12866), measured IC50 was ≤ 10 nM

IC50 on Mer (Homo sapiens (Human), UniProt Q12866) for CNC(=O)c1cc2nccc(Oc3c(F)cc(NC(=O)C4(C(=O)Nc5ccc(F)cc5)CC4)c(F)c3F)c2cc1C [Compound 292] is 10 to 100 nM

Record CNC(=O)c1cc2c(Oc3ccc(NC(=O)C4(C(=O)Nc5ccc(Cl)cc5)CC4)cc3F)ccnc2cc1OC [Compound 274] ; system Mer (Homo sapiens (Human), UniProt Q12866); IC50 = ≤ 10 nM

* * *

assayRemarks: Pharmacokinetic studies in male Sprague-Dawley rats
Type: in vivo
conditionInfo: male, Sprague-Dawley, plasma; rat, IV (3.0 mg/kg); read-out: t½
measuredEndpoint: half-life (h)
Supply the numeric figure in h, leaving out any unit text.

COc1cc2nccc(Oc3ccc(NC(=O)C4(C(=O)Nc5ccc(F)cc5)CC4)cc3)c2cc1-c1ncc[nH]1 [Compound 191]    9.9

Entry CONC(=O)c1cc2c(Oc3ccc(NC(=O)C4(C(=O)Nc5ccc(F)cc5)CC4)cc3)ccnc2cc1OC [Compound 17] — recorded half-life = 3

* * *

measuredOn: UniProt P08581
Sequence (P08581 25-1390): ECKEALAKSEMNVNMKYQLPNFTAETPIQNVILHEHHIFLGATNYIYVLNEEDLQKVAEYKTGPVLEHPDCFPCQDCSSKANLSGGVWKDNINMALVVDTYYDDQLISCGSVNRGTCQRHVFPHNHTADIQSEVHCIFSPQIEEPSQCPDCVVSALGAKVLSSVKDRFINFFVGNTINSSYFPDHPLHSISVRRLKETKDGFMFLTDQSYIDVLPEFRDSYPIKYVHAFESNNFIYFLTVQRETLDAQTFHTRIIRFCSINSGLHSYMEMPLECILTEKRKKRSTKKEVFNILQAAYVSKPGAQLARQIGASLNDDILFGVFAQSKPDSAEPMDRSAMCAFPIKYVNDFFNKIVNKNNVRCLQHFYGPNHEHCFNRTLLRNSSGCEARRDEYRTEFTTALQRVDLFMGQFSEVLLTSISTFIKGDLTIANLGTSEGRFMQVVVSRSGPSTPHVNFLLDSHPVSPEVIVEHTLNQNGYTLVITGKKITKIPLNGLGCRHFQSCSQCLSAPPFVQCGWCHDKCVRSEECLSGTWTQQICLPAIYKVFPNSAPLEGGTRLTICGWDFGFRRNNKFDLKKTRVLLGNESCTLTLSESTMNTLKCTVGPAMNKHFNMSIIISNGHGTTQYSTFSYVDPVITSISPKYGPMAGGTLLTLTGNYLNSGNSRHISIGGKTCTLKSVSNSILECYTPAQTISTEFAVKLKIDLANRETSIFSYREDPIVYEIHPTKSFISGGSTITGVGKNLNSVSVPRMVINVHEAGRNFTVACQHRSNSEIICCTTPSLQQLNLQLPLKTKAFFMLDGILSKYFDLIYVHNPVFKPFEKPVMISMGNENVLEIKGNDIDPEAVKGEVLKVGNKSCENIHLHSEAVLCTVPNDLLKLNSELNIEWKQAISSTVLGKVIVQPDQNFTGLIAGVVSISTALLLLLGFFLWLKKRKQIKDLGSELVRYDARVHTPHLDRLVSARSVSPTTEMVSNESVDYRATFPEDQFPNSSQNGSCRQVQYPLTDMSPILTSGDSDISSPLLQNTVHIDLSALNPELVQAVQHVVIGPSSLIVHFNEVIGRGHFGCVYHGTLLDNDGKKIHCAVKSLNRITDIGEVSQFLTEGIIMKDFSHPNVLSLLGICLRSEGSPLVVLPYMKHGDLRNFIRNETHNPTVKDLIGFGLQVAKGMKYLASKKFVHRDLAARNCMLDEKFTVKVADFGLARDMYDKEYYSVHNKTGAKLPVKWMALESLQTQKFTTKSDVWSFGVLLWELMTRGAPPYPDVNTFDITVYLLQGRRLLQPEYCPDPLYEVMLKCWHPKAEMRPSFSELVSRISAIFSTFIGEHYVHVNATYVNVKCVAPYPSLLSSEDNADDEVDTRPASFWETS
assayRemarks: Met autophosphorylation ELISA in PC-3 cells
conditionInfo: cellular, HGF stimulated, read-out: c-Met IC50
Description: PC-3 prostate cancer cells (ATCC #CRL-1435) were seeded at 4×10^4 cells/well onto 24-well plates (Greiner #662165), in DMEM (Thermo Fisher #11995-040) containing 10% FBS (Thermo Fisher #26140-079), 1% MEM NEAA (Thermo Fisher #11140-050), 1% GlutaMax (Thermo Fisher #35050-061), and 1% Penicillin Streptomycin (Thermo Fisher #15140-122). […] IC50 values were calculated by nonlinear regression analysis using a 4-parameter logistic curve fit in ActivityBase XE (IDBS).
measuredEndpoint: IC50

Examples from the recorded data:
COc1cc2nccc(Oc3ccc(NC(=O)C4(C(=O)Nc5ccc(F)cc5)CC4)cc3)c2cc1C(=O)NC1COC1    10 to 100 nM
COCCOc1cc2nccc(Oc3ccc(NC(=O)C4(C(=O)Nc5ccc(F)cc5)CC4)cc3)c2cc1C(N)=O    10 to 100 nM
O=C(NOCCO)c1ccc2c(Oc3ccc(NC(=O)C4(C(=O)Nc5ccc(F)cc5)CC4)cc3F)ccnc2c1    10 to 100 nM

In plain terms, COC(=O)c1ccc2c(Oc3ccc(NC(=O)C4(C(=O)Nc5ccc(F)cc5)CC4)cc3)ccnc2c1 has a documented IC50 of 100 to 300 nM

* * *

Measured pIC50 of individual entries
measuredOn: UniProtKB P08581
assayRemarks: Met autophosphorylation ELISA in PC-3 cells
conditionInfo: cellular, HGF stimulated, read-out: c-Met IC50
pIC50: −log10 of the molar value.

COc1cc2nccc(Oc3ccc(NC(=O)C4(C(=O)Nc5ccc(F)cc5)CC4)cc3)c2cc1C(=O)NOCC(O)CO (single isomer, unassigned) [Compound 31]    6.52 to 7.00
CNS(=O)(=O)c1cc2c(Oc3ccc(NC(=O)C4(C(=O)Nc5ccc(F)cc5)CC4)cc3)ccnc2cc1OC    7.00 to 8.00
COc1cc2nccc(Oc3ccc(NC(=O)C4(C(=O)Nc5ccc(F)cc5)CC4)cc3)c2cc1S(C)(=O)=O    7.00 to 8.00

What the record says about CCC1NC(=O)c2cc3c(Oc4ccc(NC(=O)C5(C(=O)Nc6ccc(F)cc6)CC5)cc4)ccnc3cc2O1 (centres unmarked) : pIC50 is 6.52 to 7.00

pIC50 recorded for this compound, O=C(NOC1COC1)c1ccc2c(Oc3ccc(NC(=O)C4(C(=O)Nc5ccc(F)cc5)CC4)cc3)ccnc2c1 , is 6.52 to 7.00

Quick note, pIC50 for COC(=O)c1cc2nccc(Oc3ccc(NC(=O)C4(C(=O)Nc5ccc(F)cc5)CC4)cc3)c2cc1C landed at 7.00 to 8.00

Data point: O=C(NOCCO)c1ccc2c(Oc3cc(F)c(NC(=O)C4(C(=O)Nc5ccc(F)cc5)CC4)cc3F)ccnc2c1 ; pIC50 = ≥ 8.00

Record COc1cc2nccc(Oc3ccc(NC(=O)C4(C(=O)Nc5ccc(F)cc5)CC4)cc3)c2cc1S(N)(=O)=O . Reported pIC50: ≥ 8.00

get_value(item= COc1cc2nccc(Oc3ccc(NC(=O)C4(C(=O)Nc5ccc(F)cc5)CC4)cc3)c2cc1-c1ccccn1 , readout=pIC50) returns 7.00 to 8.00

What the record says about COC(=O)c1cc2c(Oc3ccc(NC(=O)C4(C(=O)Nc5ccc(F)cc5)CC4)cc3)ccnc2cc1OC : pIC50 is 7.00 to 8.00

response.value for CNC(=O)c1cc2c(Oc3ccc(NC(=O)C4(C(=O)Nc5ccc(F)cc5)CC4)cc3)ccnc2cc1N (field: pIC50) = 6.52 to 7.00

Measured pIC50 of COc1cc2nccc(Oc3ccc(NC(=O)C4(C(=O)Nc5ccc(F)cc5)CC4)cc3)c2cc1C1(O)CN(C(=O)OC(C)(C)C)C1 : 7.00 to 8.00

Lookup result for COc1cc2nccc(Oc3ccc(NC(=O)C4(C(=O)Nc5ccc(F)cc5)CC4)cc3)c2cc1-c1ncc[nH]1 ; measured pIC50: 7.00 to 8.00

Entry under test: COc1cc2nccc(Oc3ccc(NC(=O)C4(C(=O)Nc5ccc(F)cc5)CC4)cc3)c2cc1C1CC1 . Its pIC50 was 7.00 to 8.00

* * *

measuredOn: Human Met (residues R974-S1390 with A1209G and V1290L) (Homo sapiens, UniProt P08581)
assayRemarks: Human Met kinase assay (33P radiometric, KinaseProfiler)
conditionInfo: 10 μM ATP, read-out: c-Met IC50
Below, each of the compounds is paired with its reported IC50 value.

Given item Cc1cc2c(Oc3ccc(NC(=O)C4(C(=O)Nc5ccc(F)cc5)CC4)cc3)ccnc2cc1C(=O)O [Compound 141] , the value recorded as its IC50 is > 1000 nM

Sample COc1cc2nccc(Oc3ccc(NC(=O)C4(C(=O)Nc5ccc(F)cc5)CC4)cc3)c2cc1-c1cccc(C#N)c1F [Compound 175] ; IC50 observed: 10 to 100 nM

Briefly, IC50 measured for COc1cc2nccc(Oc3ccc(NC(=O)C4(C(=O)Nc5ccc(F)cc5)CC4)cc3Cl)c2cc1C(=O)O [Compound 130] : 10 to 100 nM

Per the records, this compound ( COc1cc2nccc(Oc3ccc(NC(=O)C4(C(=O)Nc5ccc(F)cc5)CC4)cc3)c2cc1N1CC(O)C1 [Compound 199] ) has IC50 equal to ≤ 10 nM

Entry COc1cc2nccc(Oc3ccc(NC(=O)C4(C(=O)Nc5ccc(F)cc5)CC4)cc3)c2cc1C(N)=O [Compound 7] ; IC50 = ≤ 10 nM

Entry COc1cc2nccc(Oc3ccc(NC(=O)C4(C(=O)Nc5ccc(F)cc5)CC4)cc3)c2cc1C(=O)NC1CN(C)C1 [Compound 14] — recorded IC50 = ≤ 10 nM

The reported IC50 of the compound CNC(=O)c1cc2c(Oc3ccc(NC(=O)C4(C(=O)Nc5ccc(F)cc5)CC4)cc3F)ccnc2cc1OC [Compound 135] was ≤ 10 nM
